All values here come from ChEMBL document CHEMBL5223141.

Molecular target: Maltase-glucoamylase (Homo sapiens)
Test: Inhibition of alpha-glucosidase (unknown origin) at 100 uM relative to control
endpointName: inhibition (%)

Sample records with inhibition:
{"columns": ["itemSmiles", "inhibition / %"],
 "data": [
  ["COc1cc2c(cc1OC)CN(C(=O)c1c(NC(=O)c3cccnc3)sc3c1CCCCC3)CC2", 29.1],
  ["COc1ccc(CNC(=O)c2c(NC(=O)c3cccnc3)sc3c2CCCC3)cc1", 78.1],
  ["O=C(Nc1sc2c(c1C(=O)NCc1cccnc1)CCCCC2)c1cccnc1", 26.5],
  ["O=C(Nc1sc2c(c1C(=O)NCc1ccccn1)CCC2)c1cccnc1", 30.5],
  ["O=C(Nc1sc2c(c1C(=O)NCc1ccccc1)CCC2)c1cccnc1", 56.6],
  ["COc1cc(CNC(=O)c2c(NC(=O)c3cccnc3)sc3c2CCCCC3)ccc1O", 81.7],
  ["O=C(Nc1sc2c(c1C(=O)NCc1ccccc1)CCCCC2)c1cccnc1", 59]
]}

a: O=C(Nc1sc2c(c1C(=O)NCc1ccncc1)CCCC2)c1cccnc1
b: COc1cc2c(cc1OC)CN(C(=O)c1c(NC(=O)c3cccnc3)sc3c1CCC3)CC2
Exercise: Lab note: check whether a or b has the lower measured inhibition. API: response body contains the label of the selected item.
Key: b
(b: 23.2%, a: 44.1%)

###

Molecular target: Maltase-glucoamylase (Homo sapiens)
Assay: Inhibition of alpha-glucosidase (unknown origin) at 100 uM relative to control
endpointName: inhibition (%)

Example entries and their recorded answers appear below.
{"columns": ["itemSmiles", "endpointUnit", "inhibition"],
 "data": [
  ["COc1cc2c(cc1OC)CN(C(=O)c1c(NC(=O)c3cccnc3)sc3c1CCCC3)CC2", "%", 42.2],
  ["O=C(Nc1sc2c(c1C(=O)NCc1ccccn1)CCCCC2)c1cccnc1", "%", 26.8],
  ["COc1ccc(CNC(=O)c2c(NC(=O)c3cccnc3)sc3c2CCC3)cc1", "%", 55.4],
  ["COC(=O)c1ccc(CNC(=O)c2c(NC(=O)c3cccnc3)sc3c2CCCCC3)cc1", "%", 18.1],
  ["O=C(Nc1sc2c(c1C(=O)NCc1ccccn1)CCCC2)c1cccnc1", "%", 57.2],
  ["COc1ccc(CNC(=O)c2c(NC(=O)c3cccnc3)sc3c2CCCCC3)cc1", "%", 44.1]
]}

A: COc1cc(CNC(=O)c2c(NC(=O)c3cccnc3)sc3c2CCCC3)ccc1O
B: COc1cc(CNC(=O)c2c(NC(=O)c3cccnc3)sc3c2CCC3)ccc1O
C: COC(=O)c1ccc(CNC(=O)c2c(NC(=O)c3cccnc3)sc3c2CCC3)cc1
D: O=C(Nc1sc2c(c1C(=O)NCc1ccncc1)CCCCC2)c1cccnc1
Exercise: Descending sort on inhibition required. Response format: the labels, sorted as the prompt asks.
Key: A, B, C, D
(A: 93.6%, B: 50.6%, C: 21.9%, D: 9.2%)
